Sourced from patent US20260069689A1

SYSTEM: SARS-COV-2 RBD-MMH (SARS-CoV-2)
ASSAY_DETAILS: SPR 37C, run with dissociation at pH 7.4
// boundary case: koff equal to 0.002 s⁻¹ maps to Not satisfied; strictly smaller maps to Satisfied

| BINDER | CLASS_LABEL |
| --- | --- |
| mAb15158 (antibody, V domains shown) VH: EVQLVESGGGLVQPGGSLRLSCAASGFSFSSNWMSWVRQAPGKGLEWVGNINQDGSEKYYVDSVEGRFTISRDNAKKSLYLQMNSLRAEDTAVYYCARDLGVLWFGDFVDWGQGALVTVSS VL: DIQMTQSPSSLSASVGDRVTITCRASQAISNSLAWYQQKPGKAPKLLLYAASTLESGVPSRFSGSGSGTDYTLTISSLQPEDFATYYCLQYYGSPRTFGQGTKVEIKR | Satisfied |
| mAb15164 (antibody, V domains shown) VH: EVQLVESGGGLVQPGGSLRLSCAASGFAVSSNYMTWVRQAPGKGLEWVATIYSGDSTYYADSVKGRFTISRHNSKNTLSLQMNSLRADDTAIYYCARLSGVLSGTYNGAFDIWGQGTMVTVSS VL: QSALTQPASVSGSPGQSITISCTGTSSDFGNYNIVSWYQQHPGQAPKVMIYEGNKRPSGVSNRFSGSKSGHTASLTISGLQAEDEADYYCSSYAGSSTWVFGGGTKLTVLG | Not satisfied |
| mAb15162 (antibody, V domains shown) VH: EVQLVETGGGLIQPGGSLRLSCAASEFIVSRNYMSWVRQAPGKGLEWVSLIYSGGSTYYADSVKGRFTISRDNSKNILYLQMNSLRAEDTAVYYCARDRGGISDYWGQGTLVTVSS VL: DIQMTQSPSSLSASVGDRVTITCQASQDINKYLNWFQQKPGKAPKLLIYDASNLETGVPSRFSGSGSGTDFTFTISSLQPEDIATYYCQQYDNLPRTFGQGTKLEIKR | Not satisfied |
| mAb15151 (antibody, V domains shown) VH: QVQLVESGGGVVQPGRSLRLSCAASGFVFNSYGMHWVRQAPGKGLEWVAVLWYEGSKNYYADSVKGRFTISRDNSKNTLYLQMNSLRAEDTAVYYCARHGSGSFFGYYLDYWGQGTLVTVSS VL: DIQMTQSPSSLSASVGDRVTITCRASHNINDFLNWYQQKPGKAPRLLIYAASSLQSGVPSRFSGSGSGTDFTLTISSLQPEDFATYYCQESYTTPPTFGQGTKLEIKR | Not satisfied |
| mAb15159 (antibody, V domains shown) VH: EVQLVESGGGLVQPGGSLRLSCAASGITVSSNYMTWVRQAPGKGLEWVSLIYSGGSTFYADSVRGRFTISRDNSKNTLYLQMNSLRAEDTAVYYCARDLVVYGMDVWGQGTTVTVSS VL: DIQLTQSPSSLSASVGDRVTITCRASQGISSYLAWYQQKPGKAPKLLIYAASTLQSGVPSRFSGSGSGTDFTLTISSLQPEDFATYYCQHLNSDPHTFGQGTKLEIKR | Satisfied |

Prompt: koff strictly < 0.002 s⁻¹ for this binder? mAb15150 (antibody, V domains shown) VH: EVQLVETGGGLIQPGGSLRLSCAAPGFIVSSNYMSWVRQAPGKGLEWVSLLYPGGSTYYADSVKGRFTISRDNSKNTLYLQMNSLRADDTAVYYCARVLPIVEDHFDYWGQGTLVTVSS VL: DIQLTQSPSFLSASVGDRVTITCRASQGMSSYLAWYQKKPGKAPKLLIYGATILQSGVPSRFSGSGSGTEFTLTISSLQPEDFATYYCQQLNSDPLYMYTFGQGTKLEIKR
Response: Satisfied

Prompt: koff strictly < 0.002 s⁻¹ for this binder? mAb15157 (antibody, V domains shown) VH: EVQLVESGGALVQPGGSLRLSCAASGFPFTIYAMTWVRQAPGKGLEWVSVITGSGDSTYYADSVKGRFTISRDNSKNTLYLQMNSLRAEDTAVYYCVKTGEGFFYYYYGMDVWGQGTTVTVSS VL: QSVLTQPPSVSAAPGQKVTISCSGSSSNIGNSYISWYQQLPGTAPKLLIYVNNKRPSGIPDRFSGSKSGTSATLGITGLQTGDEADYYCGTWDSSLSAGVFGSGTKVTVLG
Response: Not satisfied
